This collection of values is drawn from PubChem BioAssay (NCI).

Assay Details: NCI Yeast Anticancer Drug Screen. Data for the cln2 rad14 strain (AID 165);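 also: 0% = growth equal to vehicle treated cultures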
Cond: S. cerevisiae cln2 rad14 strain, at 50.0 µM (retest, dose inferred, filed as 5.0), stronger effect = higher value
The panel holds about 79,000 compounds, 15% with a hit somewhere; the sample as a whole holds those more often.
Measured Quantity: growth inhibition (%)
Write it as a number; the unit % goes unstated.

[[record]]
compound = "CC(C)(C)c1cc(Cl)c(O)c(Cc2cc(C(C)(C)C)cc(Cl)c2O)c1"
value_unit = "%"
numeric_readout = 79

[[record]]
compound = "Cc1ccc2c(C3Cc4ccccc4N3C(=O)/C=C\\C(=O)O)c(C)[nH]c2c1 (stereo not drawn)"
value_unit = "%"
numeric_readout = 82


Item: O=C1CSC(c2ccccc2O)N1c1ccc(-n2c(-c3ccccc3)nc3ccccc3c2=O)cc1 (stereo not drawn) | growth inhibition: 79
